Record form. Attribute: pIC50. Fill in for each entry.
- assayedTarget: S1PR2 (Homo sapiens, UniProt O95136)
- Construct: purchased
- Sequence (O95136 whole entry): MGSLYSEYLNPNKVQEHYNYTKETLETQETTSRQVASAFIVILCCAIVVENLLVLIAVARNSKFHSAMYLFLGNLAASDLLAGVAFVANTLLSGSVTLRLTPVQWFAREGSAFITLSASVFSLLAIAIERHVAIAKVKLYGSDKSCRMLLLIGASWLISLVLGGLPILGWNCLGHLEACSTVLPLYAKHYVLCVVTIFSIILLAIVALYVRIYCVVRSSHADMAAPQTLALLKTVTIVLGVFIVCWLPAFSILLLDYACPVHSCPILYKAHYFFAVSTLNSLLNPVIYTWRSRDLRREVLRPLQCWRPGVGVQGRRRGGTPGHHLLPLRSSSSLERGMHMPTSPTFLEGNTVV
- experimentalDetails: competitive [^32P]S1P binding assay on cell membranes, S1PR2
- cond: Table 5; read-out: IC50 S1PR2
One number for each entry, as −log10 of the molar value.

Some compounds with known pIC50 results, for comparison:
                                   compound  observedproperty  recordedmeasurement
0  CC(C)CC1(O)CCN(C(=O)Nc2cc(Oc3ccc(F)cc3)cc(C(F)(F)F)c2)CC1 [TZ51-032]             pIC50                 6.78
1  COc1cc(OC)c(NC(=O)Cn2c(=O)n(CC(=O)Nc3ccccc3OC)c(=O)c3ccccc32)cc1Cl [TZ59-134]             pIC50                 8.20
2  COc1cccc(NC(=O)Cn2c(=O)c3ccccc3n(CC(=O)Nc3cc(Cl)c(OC)cc3OC)c2=O)c1 [TZ59-131]             pIC50                 7.41
3  CCC(CC)CC1(O)CCN(C(=O)Nc2cc(Oc3ccc(C(=O)NC)cc3)c3c(c2)oc2ccc(F)cc23)CC1 [TZ51-011]             pIC50                 6.33
4  CC(C)CC1(O)CCN(C(=O)Nc2cc(Oc3ccc(F)cc3)cc(Oc3ccc(S(C)(=O)=O)cc3)c2)C1 (stereo not shown) [TZ57-120]             pIC50                 6.91

# batch size: 2; output pIC50 per entry
1. CNC(=O)c1ccc(Oc2cc(NC(=O)N3CCC(O)(CC(C)C)CC3)cc(C(F)(F)F)c2)cc1 [TZ51-024]
2. CCOc1ccc(C(=O)Cn2cc(C(=O)O)c(=O)c3ccccc32)cc1Cl [TZ62-120]

Data returned:
1: 6.55; 2: 6.57

###

- assayedTarget: S1PR2 (Homo sapiens, UniProt O95136)
- Construct: purchased
- experimentalDetails: competitive [^32P]S1P binding assay on cell membranes, S1PR2
- cond: Table 5; read-out: IC50 S1PR2
observedProperty: IC50

Some compounds with known IC50 results, for comparison:
In [3]: df
Out[3]:
                                   compound  recordedmeasurement
0  CNC(=O)c1ccc(Oc2cc(NC(=O)N3CCC(O)(CC(C)C)CC3)cc(C(F)(F)F)c2)cc1 [TZ51-108]            > 1000 nM
1  COc1cc(OC)c(NC(=O)Cn2c(=O)n(CCCC(=O)NC3CCCC3)c(=O)c3ccccc32)cc1Cl                76 nM
2  CCC(CC)CC1(O)CCN(C(=O)Nc2cc(Oc3ccc(F)cc3)cc(-n3cccn3)c2)CC1            > 1000 nM
3  CCC(CC)CC1(O)CCN(C(=O)Nc2cc(Oc3ccc(F)cc3)cc(OC3CCN(S(C)(=O)=O)CC3)c2)CC1               292 nM
4  CNC(=O)c1ccc(Oc2cc(NC(=O)N3CCC(O)(C(C)C)CC3)cc(C(F)(F)F)c2)cc1            > 1000 nM
5  CC(C)C(O)C1CCN(C(=O)Nc2cc(Oc3ccc(F)cc3)cc(Oc3ccc(S(C)(=O)=O)cc3)c2)CC1 (stereo not drawn)            > 1000 nM
6  COc1cc(OC)c(NC(=O)Cn2c(=O)n(CCCC(=O)NC3CCCC3)c(=O)c3cc(Cl)ccc32)cc1Cl            > 1000 nM
7  COc1cc(OC)c(NC(=O)Cn2c(=O)n(CC(=O)Nc3ccc(I)cc3)c(=O)c3ccccc32)cc1Cl              16.9 nM
8  CC(C)CC1(O)CCN(C(=O)Nc2cc(Oc3ccc(C(=O)N(C)C)cc3)cc(C(F)(F)F)c2)CC1            > 1000 nM
9  COc1ccc(C(=O)Cn2c(=O)n(CCCC(=O)N3CCCC3)c(=O)c3ccccc32)cc1Cl            > 1000 nM

# batch size: 3; output IC50 per entry
1. CS(=O)(=O)c1ccc(Oc2cc(NC(=O)N(CCO)C3CCCCC3)cc(Oc3ccc(F)cc3)c2)cc1
2. COc1ccc(Oc2cc(NC(=O)N3CCC(O)(C(C)C)CC3)cc(C(F)(F)F)c2)cc1
3. CCC(CC)CC1(O)CCN(C(=O)Nc2ccc(Oc3ccc(F)cc3)cc2)CC1

Data returned:
> 1000 nM
> 1000 nM
> 1000 nM

# batch size: 3; output IC50 per entry
1. CCC(CC)CC1(O)CCN(C(=O)Nc2nc(Oc3ccc(F)cc3)cc(Oc3ccc(F)cc3)n2)CC1
2. CC(C)CC1(O)CC(C(=O)Nc2cc(Oc3ccc(F)cc3)cc(Oc3ccc(S(C)(=O)=O)cc3)c2)C1 (stereo not drawn)
3. CCC(CC)CC1(O)CCN(C(=O)Nc2cc(OCCF)cc(Oc3ccc(F)cc3)c2)CC1

Data returned:
> 1000 nM
654 nM
> 1000 nM

# batch size: 8; output IC50 per entry
1. COc1ccccc1NC(=O)Cn1c(=O)c2ccccc2n(Cc2ccc(F)cc2)c1=O
2. CC(C)CC1(O)CCN(C(=O)Nc2cc(Oc3ccc(C(N)=O)cc3)cc(C(F)(F)F)c2)CC1
3. CS(=O)(=O)c1ccc(Oc2cc(NC(=O)N3CC[C@@]4(O)CCCC[C@H]4C3)cc(Oc3ccc(F)cc3)c2)cc1
4. COc1cc(OC)c(NC(=O)Cn2c(=O)n(CC(=O)NCCOCCOCCO)c(=O)c3ccccc32)cc1Cl
5. COc1ccc(C(=O)Cn2c(=O)n(CCCC(=O)NC3CCCC3)c(=O)c3ccccc32)cc1Cl
6. CNC(=O)c1ccc(Oc2cc(NC(=O)N3CC[C@@]4(O)CCCC[C@H]4C3)cc(Oc3ccc(F)cc3)c2)cc1
7. CCOc1ccc(C(=O)Cn2c(=O)n(CC(=O)Nc3ccccc3OC)c(=O)c3ccccc32)cc1Cl
8. CCC(CC)CC1(O)CCN(C(=O)Nc2nc(Oc3ccc(F)cc3)nc(Oc3ccc(F)cc3)n2)CC1

Data returned:
1: > 1000 nM; 2: > 1000 nM; 3: > 1000 nM; 4: 204 nM; 5: 396 nM; 6: > 1000 nM; 7: 49.8 nM; 8: > 1000 nM

# batch size: 3; output IC50 per entry
1. CNC(=O)c1ccc(Oc2cc(NC(=O)N3CCC(O)CC3)cc(C(F)(F)F)c2)cc1
2. COc1cc(OC)c(NC(=O)Cn2c(=O)n(CCF)c(=O)c3ccccc32)cc1Cl
3. CCC(CC)CC1(OC)CCN(C(=O)Nc2cc(Oc3ccc(F)cc3)cc(Oc3ccc(S(C)(=O)=O)cc3)c2)CC1

Data returned:
1: > 1000 nM; 2: > 1000 nM; 3: > 1000 nM
